target: Cannabinoid receptor 2 (Homo sapiens, UniProt P34972); assay: Displacement of [3H]CP-55940 from human recombinant CB2 receptor expressed in HEK293 cells; type: cell-based; settings: read-out: Ki
Sequence (P34972 whole entry): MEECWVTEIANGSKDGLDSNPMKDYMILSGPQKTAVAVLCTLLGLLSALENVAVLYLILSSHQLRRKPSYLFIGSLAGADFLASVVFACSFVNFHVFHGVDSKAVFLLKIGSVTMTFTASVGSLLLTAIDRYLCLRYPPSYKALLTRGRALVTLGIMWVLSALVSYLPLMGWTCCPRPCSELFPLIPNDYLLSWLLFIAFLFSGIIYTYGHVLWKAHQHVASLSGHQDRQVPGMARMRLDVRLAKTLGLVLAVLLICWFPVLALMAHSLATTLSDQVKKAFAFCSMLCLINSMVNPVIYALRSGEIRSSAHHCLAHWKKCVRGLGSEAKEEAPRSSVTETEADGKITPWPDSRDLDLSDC
QUANTITY_MEASURED: Ki (nM)

INSERT INTO results (molecule, cmp, observed_measurement) VALUES
  ('CC1(C)C(C(=O)c2cn(CCc3nsc(Cl)n3)c3ccccc23)C1(C)C', '=', 8.3),
  ('CC1(C)C(C(=O)c2cn(CCC3CCNCC3)c3ccccc23)C1(C)C', '>', 1000),
  ('CC[C@H]1CC[C@H](C(=O)c2cn(CCN3CCOCC3)c3ccccc23)CC1', '=', 16),
  ('CC1(C(=O)c2cn(CCN3CCOCC3)c3ccccc23)CC1(Cl)Cl (stereo unspecified)', '>', 1000),
  ('CC1(C)C(C(=O)c2cn(CCN3CCCC3)c3ccccc23)C1(C)C', '=', 5.8),
  ('CC1(C)C(C(=O)c2cn(CCN3CCNCC3)c3ccccc23)C1(C)C', '>', 1000),
  ('CC1(C)C(C(=O)c2cn(CCCCO)c3ccccc23)C1(C)C', '=', 2.2),
  ('COCCCn1cc(C(=O)C2C(C)(C)C2(C)C)c2ccccc21', '=', 1.3),
  ('CC1(C)C(C(=O)c2cn(CCCC(F)(F)F)c3ccccc23)C1(C)C', '=', 0.09),
  ('CC1(C)C(C(=O)c2cn(CCN3CCCC3=O)c3ccccc23)C1(C)C', '=', 55),
  ('CC1(C)C(C(=O)c2cn(CC3OCCO3)c3ccccc23)C1(C)C', '=', 1);

Attribution: ChEMBL document CHEMBL1156767
